Tested on: peripheral blood mononuclear cells from Mtb-immune (PPD skin-test positive) subjects
Assay type: cell-based, human
Conditions: Philippines cohort; positive if SI≧2.0; peptide 1 and 10 μg/ml
The label satisfied is reserved for Phil % responders (n = 38) strictly under 5%; not satisfied covers values equal to or above it.

Query: Regarding SVVMPVGGQSSFYSDW (listed as Mycobacterium tuberculosis) [32-3, aa 67-82 of 32 kDa Mtb protein (Antigen 85A)] , kindly confirm whether its Phil % responders (n = 38) is beneath 5%.
Response: not satisfied

Query: Regarding AELPGVDPDKDVD (listed as Mycobacterium tuberculosis) [16-3, aa 54-66 of 16 kDa Mtb protein] , kindly confirm whether its Phil % responders (n = 38) is beneath 5%.
Response: satisfied

Query: Regarding FAYGSFVRTVSLPVGA (listed as Mycobacterium tuberculosis) [16-5, aa 92-107 of 16 kDa Mtb protein] , kindly confirm whether its Phil % responders (n = 38) is beneath 5%.
Response: not satisfied

Query: Regarding PLLNVGKLIANNTRVWVY (listed as Mycobacterium tuberculosis) [32-8, aa 193-210 of 32 kDa Mtb protein (Antigen 85A)] , kindly confirm whether its Phil % responders (n = 38) is beneath 5%.
Response: not satisfied

Query: Regarding FSELFAAFPSFAGLRPTFDT (listed as Mycobacterium tuberculosis) [16-2, aa 17-36 of 16 kDa Mtb protein] , kindly confirm whether its Phil % responders (n = 38) is beneath 5%.
Response: not satisfied

Query: Regarding VAVAGAAILVAGLSGCSSN [19-1] , kindly confirm whether its Phil % responders (n = 38) is beneath 5%.
Response: not satisfied

Query: Regarding IAIGGAATGIAAVLTDGNPP [19-3] , kindly confirm whether its Phil % responders (n = 38) is beneath 5%.
Response: not satisfied

Query: Regarding LTIKAERTEQK (listed as Mycobacterium tuberculosis) [16-4, aa 74-84 of 16 kDa Mtb protein] , kindly confirm whether its Phil % responders (n = 38) is beneath 5%.
Response: satisfied

Query: Regarding RSLFPEFSELFAAFPSFAGL (listed as Mycobacterium tuberculosis) [16-1, aa 11-30 of 16 kDa Mtb protein] , kindly confirm whether its Phil % responders (n = 38) is beneath 5%.
Response: not satisfied

Query: Regarding VGLSMAASSALTLAIYHPQQ (listed as Mycobacterium tuberculosis) [32-6, aa 123-142 of 32 kDa Mtb protein (Antigen 85A)] , kindly confirm whether its Phil % responders (n = 38) is beneath 5%.
Response: not satisfied

Query: Regarding LPVEYLQVPSPSMGR (listed as Mycobacterium tuberculosis) [32-1, aa 6-20 of 32 kDa Mtb protein (Antigen 85A)] , kindly confirm whether its Phil % responders (n = 38) is beneath 5%.
Response: not satisfied

Query: Regarding ALYLLDGLRAQDD (listed as Mycobacterium tuberculosis) [32-2, aa 35-47 of 32 kDa Mtb protein (Antigen 85A)] , kindly confirm whether its Phil % responders (n = 38) is beneath 5%.
Response: not satisfied

Query: Regarding LAIYHPQQFVYAGAMSGLLD (listed as Mycobacterium tuberculosis) [32-7, aa 135-154 of 32 kDa Mtb protein (Antigen 85A)] , kindly confirm whether its Phil % responders (n = 38) is beneath 5%.
Response: not satisfied

Query: Regarding GVFDFPDSGTHSW (listed as Mycobacterium tuberculosis) [32-10, aa 252-264 of 32 kDa Mtb protein (Antigen 85A)] , kindly confirm whether its Phil % responders (n = 38) is beneath 5%.
Response: not satisfied

Query: Regarding GSFGSAPSNGWLKLGLVEFG (listed as Mycobacterium tuberculosis) [14-2, aa 19-38 of 14 kDa Mtb protein] , kindly confirm whether its Phil % responders (n = 38) is beneath 5%.
Response: not satisfied

Query: Regarding SHYKITGTATGVD [19-5] , kindly confirm whether its Phil % responders (n = 38) is beneath 5%.
Response: satisfied

Query: Regarding LKLGLVEFGGVAKLNAEVMS (listed as Mycobacterium tuberculosis) [14-3, aa 30-49 of 14 kDa Mtb protein] , kindly confirm whether its Phil % responders (n = 38) is beneath 5%.
Response: not satisfied

Query: Regarding VSETISGPRLYGEMTMQGTR (listed as Mycobacterium tuberculosis) [14-6, aa 80-99 of 14 kDa Mtb protein] , kindly confirm whether its Phil % responders (n = 38) is beneath 5%.
Response: satisfied

Query: Regarding KFLEGFVRTSNIKFQD (listed as Mycobacterium tuberculosis) [32-9, aa 227-242 of 32 kDa Mtb protein (Antigen 85A)] , kindly confirm whether its Phil % responders (n = 38) is beneath 5%.
Response: not satisfied

Query: Regarding QAVMLGTGTPNRA (listed as Mycobacterium tuberculosis) [14-4, aa 56-68 of 14 kDa Mtb protein] , kindly confirm whether its Phil % responders (n = 38) is beneath 5%.
Response: not satisfied

Query: Regarding QNVTGSVVCTTAAGNVN [19-2] , kindly confirm whether its Phil % responders (n = 38) is beneath 5%.
Response: not satisfied

Query: Regarding EYWGAQLNAMKP (listed as Mycobacterium tuberculosis) [32-11, aa 265-276 of 32 kDa Mtb protein (Antigen 85A)] , kindly confirm whether its Phil % responders (n = 38) is beneath 5%.
Response: not satisfied
